Provide the recorded pIC50 for the entries that follow.
Molecular target: PI3Kδ (p110δ/p85α) (Homo sapiens (Human), UniProt O00329)
Sequence (O00329 whole entry, species assumed): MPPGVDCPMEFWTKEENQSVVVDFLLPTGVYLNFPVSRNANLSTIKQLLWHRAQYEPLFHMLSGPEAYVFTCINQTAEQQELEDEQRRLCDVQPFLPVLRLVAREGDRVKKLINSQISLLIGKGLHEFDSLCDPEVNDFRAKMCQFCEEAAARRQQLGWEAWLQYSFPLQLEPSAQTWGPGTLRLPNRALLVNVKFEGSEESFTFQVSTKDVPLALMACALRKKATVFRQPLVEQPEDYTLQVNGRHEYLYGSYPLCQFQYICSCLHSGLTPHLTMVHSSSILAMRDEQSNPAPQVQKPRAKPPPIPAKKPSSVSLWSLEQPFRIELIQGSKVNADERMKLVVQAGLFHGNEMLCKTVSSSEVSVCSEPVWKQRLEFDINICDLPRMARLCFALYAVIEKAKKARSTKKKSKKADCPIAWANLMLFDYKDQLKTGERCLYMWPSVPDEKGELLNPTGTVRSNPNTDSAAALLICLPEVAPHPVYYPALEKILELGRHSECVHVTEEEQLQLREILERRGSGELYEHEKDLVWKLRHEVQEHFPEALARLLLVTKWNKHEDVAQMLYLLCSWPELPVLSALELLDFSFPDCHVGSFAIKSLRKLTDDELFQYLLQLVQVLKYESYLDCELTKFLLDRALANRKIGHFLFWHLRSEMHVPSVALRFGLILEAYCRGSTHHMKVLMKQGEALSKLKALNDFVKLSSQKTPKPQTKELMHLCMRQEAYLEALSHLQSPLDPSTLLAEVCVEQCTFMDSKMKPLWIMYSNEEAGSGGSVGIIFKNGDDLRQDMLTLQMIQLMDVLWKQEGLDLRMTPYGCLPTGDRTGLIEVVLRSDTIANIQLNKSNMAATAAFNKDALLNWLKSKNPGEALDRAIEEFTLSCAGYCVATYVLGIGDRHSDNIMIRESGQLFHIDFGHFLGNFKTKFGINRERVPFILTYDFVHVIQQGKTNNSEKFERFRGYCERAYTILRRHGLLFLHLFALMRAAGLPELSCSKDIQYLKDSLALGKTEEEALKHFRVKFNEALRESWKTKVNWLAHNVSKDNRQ
Sequence (P27986 whole entry partner, species assumed): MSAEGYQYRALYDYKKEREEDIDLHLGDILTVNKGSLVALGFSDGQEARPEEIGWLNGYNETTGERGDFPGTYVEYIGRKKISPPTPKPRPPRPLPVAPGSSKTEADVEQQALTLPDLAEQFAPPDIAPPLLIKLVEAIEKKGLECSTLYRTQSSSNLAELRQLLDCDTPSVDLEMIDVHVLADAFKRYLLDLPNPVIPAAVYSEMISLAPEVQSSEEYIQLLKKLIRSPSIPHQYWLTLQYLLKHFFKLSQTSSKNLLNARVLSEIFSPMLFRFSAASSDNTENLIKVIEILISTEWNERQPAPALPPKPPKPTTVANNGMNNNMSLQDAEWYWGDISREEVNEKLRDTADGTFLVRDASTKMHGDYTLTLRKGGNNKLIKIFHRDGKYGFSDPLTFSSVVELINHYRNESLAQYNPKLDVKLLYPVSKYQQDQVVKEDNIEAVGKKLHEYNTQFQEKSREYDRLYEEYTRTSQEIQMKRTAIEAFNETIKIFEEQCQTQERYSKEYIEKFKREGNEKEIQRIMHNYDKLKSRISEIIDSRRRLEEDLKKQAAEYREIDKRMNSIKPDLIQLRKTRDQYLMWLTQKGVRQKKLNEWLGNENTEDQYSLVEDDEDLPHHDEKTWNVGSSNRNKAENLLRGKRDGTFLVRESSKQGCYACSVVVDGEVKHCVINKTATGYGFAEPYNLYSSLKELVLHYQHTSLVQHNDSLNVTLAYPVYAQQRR
Assay: PI3Kδ Scintillation Proximity Assay (Assay A3)
Type: biochemical
Conditions: column b, Assay A3 (SPA), 20 μM ATP
pIC50: −log10 of the molar value. Structures can show the parent of a compound that is named as a salt.

Below are worked cases with known answers.
| Compound | pIC50 |
| --- | --- |
| Cc1cc(-c2c(C(C)Nc3ncnc4[nH]cnc34)nc3cccc(C)n3c2=O)cnc1Cl (stereo not shown) [Example 81, trifluoroacetic acid salt] | < 6.30 |
| Cc1csc2nc(C(C)Nc3ncnc4[nH]cnc34)c(-c3cscn3)c(=O)n12 (stereo not shown) [Example 21, trifluoroacetic acid salt] | > 7.30 |
| Cc1csc2nc(C(C)Nc3nc(N)nc4[nH]cnc34)c(-c3cncc(F)c3)c(=O)n12 (stereo not shown) [Example 38, trifluoroacetic acid salt] | 7.00 to 7.30 |
| Cc1csc2nc(C(C)Nc3nc(N)nc4[nH]cnc34)c(-c3cccc(F)c3)c(=O)n12 (stereo not shown) | > 7.30 |
| Cc1csc2nc(C(C)Nc3nc(N)nc4[nH]cnc34)c(-c3cc(F)cc(F)c3)c(=O)n12 (stereo not shown) [Example 13] | > 7.30 |
| Cc1cccc2nc(C(C)Nc3nc(N)nc4[nH]cnc34)c(-c3ccccc3Cl)c(=O)n12 (stereo not shown) [Example 58, trifluoroacetic acid salt] | > 7.30 |

Hello, I would appreciate it if you could give pIC50 for each entry below.
1. Cc1cccc2nc(C(C)Nc3nc(N)nc4[nH]cnc34)c(-c3cccc(F)c3)c(=O)n12 (single isomer, unassigned) [Example 75, trifluoroacetic acid salt]
2. Cc1cccc2nc(C(C)Nc3ncnc4[nH]cnc34)c(-c3ccc(Cl)cc3)c(=O)n12 (stereo not shown) [Example 55, trifluoroacetic acid salt]

1. < 6.30
2. < 6.30

// each compound listed below needs its pIC50
1. Cc1cc(-c2c(C(C)Nc3nc(N)nc4[nH]cnc34)nc3cccc(C)n3c2=O)cnc1Cl (stereo not shown) [Example 82, trifluoroacetic acid salt]
2. Cc1csc2nc([C@H](C)Nc3nc(O)nc4[nH]cnc34)c(-c3cccc(F)c3)c(=O)n12

1: < 6.30; 2: 6.30 to 7.00
